Catalogue of EC50 readings, one per entry.
Target: B2-AR (Homo sapiens, UniProt P07550)
Construct: expressed in transfected cells; host or cells: CHO-K1
Sequence (P07550 whole entry, species assumed): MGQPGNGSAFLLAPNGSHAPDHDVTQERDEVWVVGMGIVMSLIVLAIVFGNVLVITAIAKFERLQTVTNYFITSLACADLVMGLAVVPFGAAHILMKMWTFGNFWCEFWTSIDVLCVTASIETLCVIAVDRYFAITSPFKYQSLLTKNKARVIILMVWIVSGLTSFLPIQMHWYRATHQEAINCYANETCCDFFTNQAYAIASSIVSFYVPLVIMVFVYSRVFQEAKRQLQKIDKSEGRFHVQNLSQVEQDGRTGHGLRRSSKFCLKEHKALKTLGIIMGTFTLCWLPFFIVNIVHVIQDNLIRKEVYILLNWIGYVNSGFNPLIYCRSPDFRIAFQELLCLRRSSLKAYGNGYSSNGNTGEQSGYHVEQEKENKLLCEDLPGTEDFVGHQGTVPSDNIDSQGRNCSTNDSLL
Assay: cAMP Gs dynamic HTRF assay, cells expressing beta-adrenergic receptor (CHO-K1), B2-AR
Type: cell-based
Settings: CHO-K1 cells, cAMP HTRF; read-out: pEC50 [B2-AR] (converted)
Procedure: cAMP homogeneous time-resolved fluorescence (HTRF): experimental methods. Compound efficacy is determined using the cAMP Gs dynamic HTRF assay (Cisbio, catalog #62AM4PEC) largely following the manufacturer's instructions, also detailed below. Standard serial dilution curves are 10-point, 5-fold dilutions starting from a highest concentration of 10 μM. […]
recorded.metric: EC50

1) CCC(C)(C)NC[C@H](O)c1ccc(F)c2[nH]ncc12 ... < 10 nM
2) O[C@@H](CNC1CCC1)c1ccc(Cl)c2[nH]ncc12 ... < 10 nM
3) CC(C)(C)NC[C@@H](O)c1cncc2[nH]ncc12 ... 100 to 1000 nM
4) Cc1nc(N)ccc1[C@@H](O)CNC(C)(C)C ... < 10 nM
5) CC(C)(C)NC[C@H](O)c1ccc(OC(F)F)c2[nH]ncc12 ... < 10 nM
6) CC(C)(C)CNC[C@H](O)c1cccc2[nH]nc(F)c12 ... 10 to 100 nM
7) Cc1cc2ncccc2cc1[C@@H](O)CNC(C)(C)C ... 100 to 1000 nM
8) CC1(NC[C@H](O)c2cccc3[nH]ncc23)CCC1 ... < 10 nM
9) N#Cc1cc([C@@H](O)CNC2CC2)c2cn[nH]c2c1 ... 100 to 1000 nM
10) CCC(C)(CC)NC[C@H](O)c1ccc(F)c2[nH]ncc12 ... < 10 nM
11) CCC(CC)NC[C@H](O)c1cccc2[nH]ncc12 ... < 10 nM
12) CCC(CC)NC[C@H](O)c1cccc2[nH]nc(F)c12 ... < 10 nM
13) CC(C)(C)C(C)(C)NC[C@H](O)c1cccc2[nH]ncc12 ... < 10 nM
14) Cc1nc(N)c(F)cc1[C@H](CO)NC(C)(C)C ... > 1000 nM
15) Cc1nc(N)ncc1[C@@H](O)CNC(C)(C)C ... 10 to 100 nM
16) CC(C)NC[C@H](O)c1ccc(Cl)c2[nH]ncc12 ... < 10 nM
17) CCc1cc([C@@H](O)CNC(C)(C)C)c2cn[nH]c2c1 ... 100 to 1000 nM
18) CCC(C)(C)NC[C@H](O)c1cccc2[nH]cc(F)c12 ... < 10 nM
19) Cc1n[nH]c2cccc([C@@H](O)CNCC(C)C)c12 ... 100 to 1000 nM
20) CC1(NC[C@H](O)c2cccc3[nH]nc(F)c23)CC1 ... < 10 nM
21) CC(C)(CO)NC[C@H](O)c1cccc2[nH]nc(F)c12 ... < 10 nM
22) CC1(NC[C@H](O)c2ccc(Cl)c3[nH]ncc23)CCC1 ... < 10 nM

Numbers sourced from patent US20240270701A1.
